Molecular target: ZFP SBS#1227 (synthetic)
Sequence (chain, as listed by the source): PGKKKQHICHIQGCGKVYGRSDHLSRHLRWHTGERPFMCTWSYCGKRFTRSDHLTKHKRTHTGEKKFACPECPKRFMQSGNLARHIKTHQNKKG
Test: EMSA
Details: tags: MBP fusion
experimental-endpoint: Kd
Your answer should be a number followed by the unit of measure.

Q: Return reported Kd; argument: GAATAGGGG (dsDNA) DNA 1: GAATAGGGG DNA 2: CCCCTATTC
A: 25 nM
